readout_label: melting point

Some solved entries appear below for comparison.
{"columns": ["compound_structure", "measured_value"],
 "data": [
  ["COc1ccc(C=NNC(=O)c2ccc(OCc3cn(Cc4ccc(C)cc4)nn3)cc2)cc1", "224 to 228 °C"],
  ["O=C(NN=Cc1ccc(Cl)cc1)c1ccc(OCc2cn(Cc3ccc(F)cc3)nn2)cc1", "236 to 238 °C"],
  ["O=C(NN=Cc1ccc([N+](=O)[O-])cc1)c1ccc(OCc2cn(Cc3ccc(F)cc3)nn2)cc1", "202 to 205 °C"]
]}

Any idea what melting point was measured for O=C(NN=Cc1ccc([N+](=O)[O-])cc1)c1ccc(OCc2cn(Cc3ccccc3)nn2)cc1 ?
193 to 196 °C
